Data provenance: the supplement of paper PMC8617591

- Test system: Mycobacterium tuberculosis Erdman (autoluminescent)
- run description: FIC90 (Loewe) at 90% inhibition (log2); higher = more antagonistic
- measurement conditions: in vitro model: butyrate; time point: constant (~7 days, model-specific)
// reported FIC90 for each item listed
recorded endpoint: FIC90

1. NNC(=O)c1ccncc1 [isoniazid] + COc1c(N2C[C@@H]3CCCN[C@@H]3C2)c(F)cc2c(=O)c(C(=O)O)cn(C3CC3)c12 [moxifloxacin] : 0.134
2. NC(=O)c1cnccn1 [pyrazinamide] + CO[C@H]1/C=C/O[C@@]2(C)Oc3c(C)c(O)c4c(O)c(c(/C=N/N5CCN(C6CCCC6)CC5)c(O)c4c3C2=O)NC(=O)/C(C)=C\C=C\[C@H](C)[C@H](O)[C@@H](C)[C@@H](O)[C@@H](C)[C@H](OC(C)=O)[C@@H]1C : 1.25
3. O=[N+]([O-])c1cn2c(n1)OC[C@@H](OCc1ccc(OC(F)(F)F)cc1)C2 [pretomanid] + NC(=O)c1cnccn1 [pyrazinamide] : 1.15
4. NNC(=O)c1ccncc1 [isoniazid] + O=[N+]([O-])c1cn2c(n1)OC[C@@H](OCc1ccc(OC(F)(F)F)cc1)C2 [pretomanid] : 0.672
5. NNC(=O)c1ccncc1 [isoniazid] + CO[C@H]1/C=C/O[C@@]2(C)Oc3c(C)c(O)c4c(O)c(c(/C=N/N5CCN(C)CC5)c(O)c4c3C2=O)NC(=O)/C(C)=C\C=C\[C@H](C)[C@H](O)[C@@H](C)[C@@H](O)[C@@H](C)[C@H](OC(C)=O)[C@@H]1C [rifampicin] : 0.359
6. NNC(=O)c1ccncc1 [isoniazid] + CC(=O)NC[C@H]1CN(c2ccc(N3CCOCC3)c(F)c2)C(=O)O1 [linezolid] : 0.923

---

Parameter Einf: see the listing below.
- Test system: Mycobacterium tuberculosis Erdman (autoluminescent)
- run description: Einf, fitted maximum growth inhibition of combination (fraction); higher = stronger maximal inhibition
- measurement conditions: in vitro model: butyrate; time point: terminal (~4-5 doublings, model-specific)
recorded endpoint: Einf

1. NC(=O)c1cnccn1 [pyrazinamide] + CO[C@H]1/C=C/O[C@@]2(C)Oc3c(C)c(O)c4c(O)c(c(/C=N/N5CCN(C6CCCC6)CC5)c(O)c4c3C2=O)NC(=O)/C(C)=C\C=C\[C@H](C)[C@H](O)[C@@H](C)[C@@H](O)[C@@H](C)[C@H](OC(C)=O)[C@@H]1C [rifapentine] : 0.941
2. CC(=O)NC[C@H]1CN(c2ccc(N3CCOCC3)c(F)c2)C(=O)O1 [linezolid] + COc1c(N2C[C@@H]3CCCN[C@@H]3C2)c(F)cc2c(=O)c(C(=O)O)cn(C3CC3)c12 [moxifloxacin] : 0.939
3. COc1nc2ccc(Br)cc2cc1[C@@H](c1ccccc1)[C@@](O)(CCN(C)C)c1cccc2ccccc12 [bedaquiline] + COc1c(N2C[C@@H]3CCCN[C@@H]3C2)c(F)cc2c(=O)c(C(=O)O)cn(C3CC3)c12 [moxifloxacin] : 0.981
4. CC(=O)NC[C@H]1CN(c2ccc(N3CCOCC3)c(F)c2)C(=O)O1 [linezolid] + CO[C@H]1/C=C/O[C@@]2(C)Oc3c(C)c(O)c4c(O)c(c(/C=N/N5CCN(C)CC5)c(O)c4c3C2=O)NC(=O)/C(C)=C\C=C\[C@H](C)[C@H](O)[C@@H](C)[C@@H](O)[C@@H](C)[C@H](OC(C)=O)[C@@H]1C [rifampicin] : 0.938
5. CC[C@@H](CO)NCCN[C@@H](CC)CO [ethambutol] + CO[C@H]1/C=C/O[C@@]2(C)Oc3c(C)c(O)c4c(O)c(c(/C=N/N5CCN(C6CCCC6)CC5)c(O)c4c3C2=O)NC(=O)/C(C)=C\C=C\[C@H](C)[C@H](O)[C@@H](C)[C@@H](O)[C@@H](C)[C@H](OC(C)=O)[C@@H]1C [rifapentine] : 0.959
6. COc1nc2ccc(Br)cc2cc1[C@@H](c1ccccc1)[C@@](O)(CCN(C)C)c1cccc2ccccc12 [bedaquiline] + CO[C@H]1/C=C/O[C@@]2(C)Oc3c(C)c(O)c4c(O)c(c(/C=N/N5CCN(C6CCCC6)CC5)c(O)c4c3C2=O)NC(=O)/C(C)=C\C=C\[C@H](C)[C@H](O)[C@@H](C)[C@@H](O)[C@@H](C)[C@H](OC(C)=O)[C@@H]1C [rifapentine] : 0.976

---

- Test system: Mycobacterium tuberculosis Erdman (autoluminescent)
- run description: GRinf, maximum normalised growth rate inhibition (unitless (-1 to 1)); higher = less effect (negative = killing)
- measurement conditions: in vitro model: cholesterol-high 0.2 mM; time point: terminal (~4-5 doublings, model-specific)
GRinf reference
recorded endpoint: GRinf

1) CC[C@@H](CO)NCCN[C@@H](CC)CO [ethambutol] + NNC(=O)c1ccncc1 [isoniazid] : -0.731
2) CC[C@@H](CO)NCCN[C@@H](CC)CO [ethambutol] + NC(=O)c1cnccn1 [pyrazinamide] : -0.777
3) COc1c(N2C[C@@H]3CCCN[C@@H]3C2)c(F)cc2c(=O)c(C(=O)O)cn(C3CC3)c12 [moxifloxacin] + NC(=O)c1cnccn1 [pyrazinamide] : -0.695
4) COc1nc2ccc(Br)cc2cc1[C@@H](c1ccccc1)[C@@](O)(CCN(C)C)c1cccc2ccccc12 [bedaquiline] + O=[N+]([O-])c1cn2c(n1)OC[C@@H](OCc1ccc(OC(F)(F)F)cc1)C2 [pretomanid] : -0.576

---

Here, each record is paired with measured total FIC90 data.
- System: Mycobacterium tuberculosis Erdman (autoluminescent)
- run description: total FIC90 (Loewe) at 90% inhibition, three-drug combination (log2); higher = more antagonistic
- measurement conditions: in vitro model: intracellular J774; time point: constant = terminal
recorded endpoint: total FIC90

1. CC(C)/N=c1\cc2n(-c3ccc(Cl)cc3)c3ccccc3nc-2cc1Nc1ccc(Cl)cc1 [clofazimine] + CC[C@@H](CO)NCCN[C@@H](CC)CO [ethambutol] + CC(=O)NC[C@H]1CN(c2ccc(N3CCOCC3)c(F)c2)C(=O)O1 [linezolid] : 0.836
2. COc1c(N2C[C@@H]3CCCN[C@@H]3C2)c(F)cc2c(=O)c(C(=O)O)cn(C3CC3)c12 [moxifloxacin] + O=[N+]([O-])c1cn2c(n1)OC[C@@H](OCc1ccc(OC(F)(F)F)cc1)C2 [pretomanid] + CO[C@H]1/C=C/O[C@@]2(C)Oc3c(C)c(O)c4c(O)c(c(/C=N/N5CCN(C)CC5)c(O)c4c3C2=O)NC(=O)/C(C)=C\C=C\[C@H](C)[C@H](O)[C@@H](C)[C@@H](O)[C@@H](C)[C@H](OC(C)=O)[C@@H]1C [rifampicin] : 0.0806
3. CC(=O)NC[C@H]1CN(c2ccc(N3CCOCC3)c(F)c2)C(=O)O1 [linezolid] + COc1c(N2C[C@@H]3CCCN[C@@H]3C2)c(F)cc2c(=O)c(C(=O)O)cn(C3CC3)c12 [moxifloxacin] + NC(=O)c1cnccn1 [pyrazinamide] : 0.559
4. CC(=O)NC[C@H]1CN(c2ccc(N3CCOCC3)c(F)c2)C(=O)O1 [linezolid] + O=[N+]([O-])c1cn2c(n1)OC[C@@H](OCc1ccc(OC(F)(F)F)cc1)C2 [pretomanid] + NC(=O)c1cnccn1 [pyrazinamide] : 0.7
5. CC(C)/N=c1\cc2n(-c3ccc(Cl)cc3)c3ccccc3nc-2cc1Nc1ccc(Cl)cc1 [clofazimine] + O=[N+]([O-])c1cn2c(n1)OC[C@@H](OCc1ccc(OC(F)(F)F)cc1)C2 [pretomanid] + CO[C@H]1/C=C/O[C@@]2(C)Oc3c(C)c(O)c4c(O)c(c(/C=N/N5CCN(C)CC5)c(O)c4c3C2=O)NC(=O)/C(C)=C\C=C\[C@H](C)[C@H](O)[C@@H](C)[C@@H](O)[C@@H](C)[C@H](OC(C)=O)[C@@H]1C [rifampicin] : -0.529
6. CC[C@@H](CO)NCCN[C@@H](CC)CO [ethambutol] + COc1c(N2C[C@@H]3CCCN[C@@H]3C2)c(F)cc2c(=O)c(C(=O)O)cn(C3CC3)c12 [moxifloxacin] + CO[C@H]1/C=C/O[C@@]2(C)Oc3c(C)c(O)c4c(O)c(c(/C=N/N5CCN(C6CCCC6)CC5)c(O)c4c3C2=O)NC(=O)/C(C)=C\C=C\[C@H](C)[C@H](O)[C@@H](C)[C@@H](O)[C@@H](C)[C@H](OC(C)=O)[C@@H]1C [rifapentine] : -1.53
7. COc1nc2ccc(Br)cc2cc1[C@@H](c1ccccc1)[C@@](O)(CCN(C)C)c1cccc2ccccc12 [bedaquiline] + O=[N+]([O-])c1cn2c(n1)OC[C@@H](OCc1ccc(OC(F)(F)F)cc1)C2 [pretomanid] + CO[C@H]1/C=C/O[C@@]2(C)Oc3c(C)c(O)c4c(O)c(c(/C=N/N5CCN(C6CCCC6)CC5)c(O)c4c3C2=O)NC(=O)/C(C)=C\C=C\[C@H](C)[C@H](O)[C@@H](C)[C@@H](O)[C@@H](C)[C@H](OC(C)=O)[C@@H]1C [rifapentine] : 0.0139
8. COc1nc2ccc(Br)cc2cc1[C@@H](c1ccccc1)[C@@](O)(CCN(C)C)c1cccc2ccccc12 [bedaquiline] + CC(C)/N=c1\cc2n(-c3ccc(Cl)cc3)c3ccccc3nc-2cc1Nc1ccc(Cl)cc1 [clofazimine] + NC(=O)c1cnccn1 [pyrazinamide] : -0.109
9. COc1c(N2C[C@@H]3CCCN[C@@H]3C2)c(F)cc2c(=O)c(C(=O)O)cn(C3CC3)c12 [moxifloxacin] + O=[N+]([O-])c1cn2c(n1)OC[C@@H](OCc1ccc(OC(F)(F)F)cc1)C2 [pretomanid] + NC(=O)c1cnccn1 [pyrazinamide] : 0.419
10. COc1c(N2C[C@@H]3CCCN[C@@H]3C2)c(F)cc2c(=O)c(C(=O)O)cn(C3CC3)c12 [moxifloxacin] + O=[N+]([O-])c1cn2c(n1)OC[C@@H](OCc1ccc(OC(F)(F)F)cc1)C2 [pretomanid] + CO[C@H]1/C=C/O[C@@]2(C)Oc3c(C)c(O)c4c(O)c(c(/C=N/N5CCN(C6CCCC6)CC5)c(O)c4c3C2=O)NC(=O)/C(C)=C\C=C\[C@H](C)[C@H](O)[C@@H](C)[C@@H](O)[C@@H](C)[C@H](OC(C)=O)[C@@H]1C [rifapentine] : 0.252
11. COc1nc2ccc(Br)cc2cc1[C@@H](c1ccccc1)[C@@](O)(CCN(C)C)c1cccc2ccccc12 [bedaquiline] + O=[N+]([O-])c1cn2c(n1)OC[C@@H](OCc1ccc(OC(F)(F)F)cc1)C2 [pretomanid] + NC(=O)c1cnccn1 [pyrazinamide] : 0.176
12. CC[C@@H](CO)NCCN[C@@H](CC)CO [ethambutol] + COc1c(N2C[C@@H]3CCCN[C@@H]3C2)c(F)cc2c(=O)c(C(=O)O)cn(C3CC3)c12 [moxifloxacin] + O=[N+]([O-])c1cn2c(n1)OC[C@@H](OCc1ccc(OC(F)(F)F)cc1)C2 [pretomanid] : -1.12
